Sourced from patent US12398151B2

Parameter: inhibition at 25 µM. Scope: all listed entries.
# Experimental system: SUMO E1 (Homo sapiens)
# Assay method text: SUMO E1 inhibition: UBC9-SUMO1 conjugation by SDS gel electrophoresis
# Assay type: biochemical
# Cond: 25 uM compound, 60 min preincubation; read-out: SUMO E1 percent inhibition of adduct formation

Please review the entries below; each comes with its answer.
Compound	inhibition at 25 µM
C=CC(=O)N1CCc2cc(CC3CCOCC3)ccc2C1	< 1%
C=CC(=O)N1Cc2sc(C)cc2[C@@H](c2ccccc2)C1	10%
C=CC(=O)N1Cc2ccc(C(C)C)cc2[C@@H](c2ccccc2)C1	< 1%
C=CC(=O)N1Cc2ccc(Br)cc2[C@@H](c2ccccc2C(F)(F)F)C1	90%
C=CC(=O)N1Cc2ccccc2[C@@H](C(=O)OC)C1	< 1%
C=CC(=O)N1Cc2ccc(Br)cc2[C@@H](c2c(Cl)cccc2Cl)C1	< 1%
C=CC(=O)N1CCc2cc(Oc3cccc(C)c3)ccc2C1	< 1%
C=CC(=O)N1CCc2cc(Nc3ccccc3)ccc2C1	< 1%
C=CC(=O)N1CCC2CCCCC2C1 (stereo not shown)	< 1%

Attention now shifts to the item below.
Q: Using SUMO E1 (Homo sapiens) as the test system, report measured inhibition at 25 µM of CCC(=O)Nc1ccc2cc(Br)ccc2c1 .
Ans: < 1%

---

# Experimental system: UniProt Q9UBT2
# Assay method text: SUMO E1 inhibition: UBC9-SUMO1 conjugation by SDS gel electrophoresis
# Format: biochemical
# Cond: 25 uM compound, 60 min preincubation; read-out: SUMO E1 percent inhibition of adduct formation
Measured attribute: inhibition at 25 µM (%)

Please review the entries below; each comes with its answer.
Molecule	Experimental system	inhibition at 25 µM (%)
C=CC(=O)N1Cc2cc(Br)ccc2[C@@H](c2ccccc2O)C1 [Compound 77]	UniProt Q9UBT2	20
C=CC(=O)Nc1cccc([C@H]2CN(C(=O)C=C)Cc3ccccc32)c1 [Compound 52]	UniProt Q9UBT2	50
C=CC(=O)N1Cc2ccc(Br)cc2[C@@H](c2ccccc2C)C1 [Compound 58]	UniProt Q9UBT2	95

P: C=CC(=O)N1Cc2cc(OCC)ccc2[C@@H](c2ccccc2)C1 [Compound 36]
Q: C=CC(=O)N1CCc2cc(Br)ccc2C1 [Compound 3]
Q: Kindly compare P with Q and tell me which has the lower inhibition at 25 µM figure. Answer format: the label of the selected item.
Ans: P

P: C=CC(=O)N1CCc2cc(Oc3ccccc3)ccc2C1 [Compound 24]
Q: C=CC(=O)N1Cc2cc(OCC(C)C)ccc2[C@@H](c2ccccc2)C1 [Compound 48]
Q: Response body: label of entry with the larger inhibition at 25 µM; valid values P , Q . Answer format: the label of the selected item.
Ans: P

a: C=CC(=O)N1Cc2ccc(NS(=O)(=O)c3ccccc3)cc2C1 [Compound 17]
b: C=CC(=O)N1Cc2ccc(Br)cc2[C@@H](c2ccccc2)C1 [Compound 29]
Q: Kindly compare a with b and tell me which has the lower inhibition at 25 µM figure. Answer format: the label of the selected item.
Ans: a

P: C=CC(=O)N1Cc2ccc(NC(=O)c3cccnc3)cc2C1 [Compound 16]
Q: C=CC(=O)N1Cc2cccc(Br)c2[C@@H](c2ccccc2)C1 [Compound 62]
R: C=CC(=O)N1CCc2cc(CC(C)C)ccc2C1 [Compound 19]
S: C=CC(=O)N1Cc2ccccc2C[C@H]1c1ccccc1 [Compound 26]
Q: Please list these in order of increasing inhibition at 25 µM. Thank you! Please list the labels according to the requested order.
Ans: Q, S, P, R
(Q: 5%, S: 10%, P: 20%, R: 40%)

A: C=CC(=O)N1CCc2cc(Oc3cccnc3)ccc2C1 [Compound 54]
B: C=CC(=O)N1Cc2ccccc2[C@@](C)(c2ccccc2)C1 [Compound 59]
Q: Kindly compare A with B and tell me which has the lower inhibition at 25 µM figure. Answer format: the label of the selected item.
Ans: A

---

# Experimental system: SUMO E1 (Homo sapiens, UniProt Q9UBT2)
# Assay method text: SUMO E1 inhibition: UBC9-SUMO1 conjugation by SDS gel electrophoresis
# Format: biochemical
# Cond: 9 uM compound, 30 min preincubation; read-out: SUMO E1 percent inhibition of adduct formation
Parameter: inhibition at 9 µM. Scope: all listed entries.

Compound	Result
C=CC(=O)N1Cc2sc(Cl)cc2[C@@H](c2ccco2)C1 [Compound 148]	< 1%
C=CC(=O)N1Cc2sc(Cl)cc2[C@@H](C2=CN(C)CC=C2)C1 [Compound 145]	< 1%
C=CC(=O)N1Cc2sccc2[C@@H](C2CCCCC2)C1 [Compound 123]	40%
C=CC(=O)N1Cc2cc(Cl)ccc2[C@@H](c2cccnc2)C1 [Compound 87]	< 1%
C=CC(=O)N1Cc2sc(C)cc2[C@@H](c2ccccc2C)C1 [Compound 89]	95%
C=CC(=O)N1Cc2cc(Cl)ccc2[C@@H](C2CCCCC2)C1 [Compound 102]	40%
C/C=C/C(=O)N1Cc2sc(Cl)cc2[C@@H](c2ccccc2C)C1 [Compound 97]	< 1%
C=CC(=O)N1Cc2sc(Cl)cc2[C@@H]([C@H]2CCCN(C)C2)C1 [Compound 147]	< 1%

Attention now shifts to the item below.
Q: Give the reported inhibition at 9 µM for this compound. CCS(=O)(=O)N1Cc2sc(Cl)cc2[C@@H](c2ccccc2C)C1 [Compound 96]
Ans: < 1%

---

Parameter: inhibition at 9 µM. Scope: all listed entries.
# Experimental system: SUMO E1 (Homo sapiens)
# Sequence (Q9UBT2 1-640): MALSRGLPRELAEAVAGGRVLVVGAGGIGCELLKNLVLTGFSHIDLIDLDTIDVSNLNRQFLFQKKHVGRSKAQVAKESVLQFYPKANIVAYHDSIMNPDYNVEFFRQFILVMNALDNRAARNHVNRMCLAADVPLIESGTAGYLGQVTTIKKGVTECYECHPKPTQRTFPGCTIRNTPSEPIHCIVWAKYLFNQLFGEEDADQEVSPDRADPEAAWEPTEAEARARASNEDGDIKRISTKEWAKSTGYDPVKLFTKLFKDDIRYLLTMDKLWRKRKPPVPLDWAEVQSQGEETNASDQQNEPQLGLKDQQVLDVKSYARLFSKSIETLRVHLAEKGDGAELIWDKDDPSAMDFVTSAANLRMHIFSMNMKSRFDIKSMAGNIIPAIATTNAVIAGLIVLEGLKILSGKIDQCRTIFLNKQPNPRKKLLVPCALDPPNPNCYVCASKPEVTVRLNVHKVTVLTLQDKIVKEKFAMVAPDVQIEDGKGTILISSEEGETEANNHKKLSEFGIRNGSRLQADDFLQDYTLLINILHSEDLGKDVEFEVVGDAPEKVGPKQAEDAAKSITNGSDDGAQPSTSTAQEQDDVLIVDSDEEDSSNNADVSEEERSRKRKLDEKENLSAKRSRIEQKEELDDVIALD
# Sequence (Q9UBE0 1-346 partner): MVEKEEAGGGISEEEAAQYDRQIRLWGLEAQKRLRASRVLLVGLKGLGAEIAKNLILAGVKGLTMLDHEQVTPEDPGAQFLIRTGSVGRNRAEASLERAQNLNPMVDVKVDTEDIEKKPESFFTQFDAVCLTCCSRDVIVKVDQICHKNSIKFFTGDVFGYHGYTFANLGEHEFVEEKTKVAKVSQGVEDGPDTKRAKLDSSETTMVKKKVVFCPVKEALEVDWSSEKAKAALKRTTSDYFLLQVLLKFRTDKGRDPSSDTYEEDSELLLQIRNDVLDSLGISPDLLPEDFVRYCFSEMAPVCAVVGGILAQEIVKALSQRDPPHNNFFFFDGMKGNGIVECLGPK
# Assay method text: SUMO E1 inhibition: UBC9-SUMO1 conjugation by SDS gel electrophoresis
# Type: biochemical
# Cond: 9 uM compound, 30 min preincubation; read-out: SUMO E1 percent inhibition of adduct formation

Please review the entries below; each comes with its answer.
Cc1cc2c(s1)CN(C(=O)CC#N)C[C@@H]2c1ccccc1 < 1%
C=CC(=O)N1CCc2sc(Cl)cc2[C@@H](c2ccccc2)C1 80%
Cc1cc2c(s1)CN(C(=O)/C=C/c1ccccc1)C[C@@H]2c1ccccc1 < 1%
C=CC(=O)N1Cc2cc(Br)cnc2[C@@H](c2ccccc2)C1 < 1%

Q: Using SUMO E1 (Homo sapiens) as the test system, report measured inhibition at 9 µM of C=CC(=O)N1Cc2cc(Cl)ccc2[C@@H](c2ccc[nH]c2=O)C1 .
Ans: < 1%

---

# Experimental system: Atg7 (Homo sapiens, UniProt O95352)
# Sequence (O95352 whole entry, species assumed): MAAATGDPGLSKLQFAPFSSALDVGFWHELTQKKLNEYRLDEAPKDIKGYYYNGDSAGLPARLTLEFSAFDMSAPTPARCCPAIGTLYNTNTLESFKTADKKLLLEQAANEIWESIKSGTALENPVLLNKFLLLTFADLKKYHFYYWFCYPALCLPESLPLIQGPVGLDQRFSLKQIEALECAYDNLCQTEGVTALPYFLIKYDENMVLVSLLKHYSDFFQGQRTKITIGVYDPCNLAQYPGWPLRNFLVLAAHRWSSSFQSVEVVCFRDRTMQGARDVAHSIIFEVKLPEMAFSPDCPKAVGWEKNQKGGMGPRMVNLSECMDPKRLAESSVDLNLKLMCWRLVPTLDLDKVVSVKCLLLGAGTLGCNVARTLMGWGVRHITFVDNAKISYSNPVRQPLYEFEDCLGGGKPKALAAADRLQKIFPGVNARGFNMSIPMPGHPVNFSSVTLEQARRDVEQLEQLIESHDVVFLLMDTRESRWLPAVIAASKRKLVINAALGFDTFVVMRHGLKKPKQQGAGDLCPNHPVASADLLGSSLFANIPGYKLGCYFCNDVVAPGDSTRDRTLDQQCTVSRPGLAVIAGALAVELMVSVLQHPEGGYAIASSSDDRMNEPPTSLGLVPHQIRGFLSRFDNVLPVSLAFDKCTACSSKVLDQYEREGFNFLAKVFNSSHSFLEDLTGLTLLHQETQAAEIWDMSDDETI
# Assay method text: Atg7 activating enzyme (E1) inhibition
# Format: biochemical
# Cond: 25 uM compound, 60 min preincubation; read-out: Atg7 percent inhibition of adduct formation
Measured attribute: inhibition at 25 µM

Please review the entries below; each comes with its answer.
C=CC(=O)N1Cc2sc(Cl)cc2[C@@H](c2ccccc2OCCN(C)C)C1 < 1%
C=CC(=O)N1Cc2cc(OCC)ccc2[C@@H](c2ccccc2)C1 < 1%

Q: Give the reported inhibition at 25 µM for this molecule. C=CC(=O)N1CCc2cc(CC3CCOCC3)ccc2C1
Ans: 95%

Q: Give the reported inhibition at 25 µM for this molecule. C=CC(=O)N1Cc2sc(Cl)cc2[C@@H](c2ccccc2C)[C@H]1C
Ans: < 1%

Q: Give the reported inhibition at 25 µM for this molecule. C=CC(=O)N1Cc2cc(OC)ccc2[C@@H](c2ccccc2)C1
Ans: < 1%

Q: Give the reported inhibition at 25 µM for this molecule. C=CC(=O)N1Cc2cc(Cl)ccc2[C@@H](c2cccnc2)C1
Ans: < 1%

Q: Give the reported inhibition at 25 µM for this molecule. C=CC(=O)N1Cc2sc(C)cc2[C@@H](c2ccccc2)C1
Ans: < 1%

Q: Give the reported inhibition at 25 µM for this molecule. C=CC(=O)N1Cc2cc(Br)ccc2[C@@H](c2ccccc2OC)C1
Ans: < 1%

Q: Give the reported inhibition at 25 µM for this molecule. Cc1ccccc1[C@H]1CN(C(=O)/C=C/CN(C)C)Cc2sc(Cl)cc21
Ans: < 1%

Q: Give the reported inhibition at 25 µM for this molecule. O=C(/C=C/C(F)(F)F)N1Cc2sc(Cl)cc2[C@@H](c2ccccc2CC2CCOCC2)C1
Ans: < 1%

Q: Give the reported inhibition at 25 µM for this molecule. C=CC(=O)N1Cc2cc(Br)ccc2[C@@H](c2ccccc2O)C1
Ans: 30%

Q: Give the reported inhibition at 25 µM for this molecule. Cc1ccccc1[C@H]1CN(C(=O)/C=C/C(F)(F)F)Cc2sc(Cl)cc21
Ans: < 1%

Q: Give the reported inhibition at 25 µM for this molecule. C#CC(=O)N1Cc2sc(Cl)cc2[C@@H](c2ccccc2C)C1
Ans: 100%

Q: Give the reported inhibition at 25 µM for this molecule. C=CC(=O)N1Cc2ccsc2[C@@H](c2ccccc2)C1
Ans: < 1%

Q: Give the reported inhibition at 25 µM for this molecule. C=CC(=O)N1Cc2ccc(Cl)c(Cl)c2[C@@H](c2ccccc2)C1
Ans: < 1%
